Catalogue of concentration at 4 days readings, one per entry.
# procedureSummary: Plasma levels at the end of experiments
# Format: in vivo, C57BL/6 mice
# protocolConditions: C57BL/6, mouse, plasma, 5 mg/kg/d
Phrase the answer as number then unit, nothing more needed.

| compound | concentration at 4 days |
| --- | --- |
| Cc1c(C)n(Cc2cccc(OC(C)(C)C(=O)O)c2)c2ccc(C(=O)N[C@@H](C)c3ccc(C(C)(C)C)cc3)cc12 | 4010 nM |

Here's the next entry for you.
Lookup: Requested read-out: concentration at 4 days. Entry: CN(CCOc1ccc(CC2SC(=O)NC2=O)cc1)c1ccccn1 (racemic) [Rosiglitazone, reference compound]
Found: 1670 nM
